System: L1210
Experiment: Cytotoxicity against mouse L1210 cells
Type: functional, cell-based
Details: Mus musculus, L1210
property name: IC50 (µg/mL)
# unit: µg/mL | format: bare number

CC(CCCC/C=C/CC/C=C\c1ccccc1)C[C@]1(C)C[C@](C)(CC(=O)O)OO1 (stereo partly specified) [EPIPLAKINIC ACID C] ... 0.052
COC(=O)C[C@]1(C)C[C@@](C)(CC(C)CC/C=C/CC/C=C/c2ccccc2)OO1 (stereo partly specified) ... 0.0043

Input COC(=O)C[C@@]1(C)C[C@@](C)(CC(C)CCCC/C=C/CC/C=C\c2ccccc2)OO1 (stereo partly specified) . Output IC50: 0.29

Short answer for C=C[C@@H](O)C#CC#C/C=C/C(CCCCCCC)OO (stereo partly specified) [GINSENOYNE K] : IC50 was 1.8

Reported IC50 for CC(CC/C=C/CC/C=C/c1ccccc1)C[C@]1(C)C[C@@](C)(CC(=O)O)OO1 (stereo partly specified) [PLAKINIC ACID D] was 0.026

COC(=O)C[C@]1(C)C[C@@](C)(CC(C)CCCC/C=C/CC/C=C\c2ccccc2)OO1 (stereo partly specified) yielded IC50 of 0.013

---

# pIC50 per record follows
Test: Cytotoxicity against mouse Ehrlich Ascites carcinoma by trypan blue exclusion assay
Assay type: functional
// pIC50 here means minus log10 of the molar concentration (mol/L)

C[C@@H]1CCC2[C@@H](C)[C@H](O[C@@H]3O[C@H]4O[C@@]5(C)CC[C@@H]6[C@@H](C)CCC([C@@H]3C)[C@]46OO5)O[C@@H]3O[C@]4(C)CC[C@@H]1[C@@]23OO4 (some centres undefined) ... 5.85

# input for lookup
Record CC(=O)[C@@H]1CC[C@@H](C)[C@@H]2CC[C@]3(C)OO[C@@]12[C@H](OC=O)O3 , field pIC50: 4.04

---

Tested on: KB
Assay: Cytotoxicity against human KB cells
Assay type: functional, cell-based
Conditions: Homo sapiens, KB; read-out: ED50 (the source's name)
EC50 for assorted compounds
Numbers only here, please. The scale is µg/mL.

Examples with their reported EC50 follow.
C=C(C)C(CC[C@@H](C)[C@H]1CC[C@H]2[C@@H]3C[C@@H](O)C4=CC(=O)CC[C@]4(C)[C@H]3CC[C@]12C)OO (stereo partly drawn) ... 0.79
C=C(C)C(CC[C@@H](C)[C@H]1CC[C@H]2[C@@H]3CC(=O)C4=CC(=O)CC[C@]4(C)[C@H]3CC[C@]12C)OO (stereo partly drawn) ... 1.15

Next compound, EC50 to be filled in.
// EC50 lookup, compound = CC(C)/C(=C\COO)CC[C@@H](C)[C@H]1CC[C@@H]2[C@@H]1CC[C@H]1[C@H]2CC=C2C[C@@H](O)CC[C@@]21C , result: 2.2

---

Molecular target: Protein kinase C epsilon type (Homo sapiens)
Sequence (Q02156 whole entry): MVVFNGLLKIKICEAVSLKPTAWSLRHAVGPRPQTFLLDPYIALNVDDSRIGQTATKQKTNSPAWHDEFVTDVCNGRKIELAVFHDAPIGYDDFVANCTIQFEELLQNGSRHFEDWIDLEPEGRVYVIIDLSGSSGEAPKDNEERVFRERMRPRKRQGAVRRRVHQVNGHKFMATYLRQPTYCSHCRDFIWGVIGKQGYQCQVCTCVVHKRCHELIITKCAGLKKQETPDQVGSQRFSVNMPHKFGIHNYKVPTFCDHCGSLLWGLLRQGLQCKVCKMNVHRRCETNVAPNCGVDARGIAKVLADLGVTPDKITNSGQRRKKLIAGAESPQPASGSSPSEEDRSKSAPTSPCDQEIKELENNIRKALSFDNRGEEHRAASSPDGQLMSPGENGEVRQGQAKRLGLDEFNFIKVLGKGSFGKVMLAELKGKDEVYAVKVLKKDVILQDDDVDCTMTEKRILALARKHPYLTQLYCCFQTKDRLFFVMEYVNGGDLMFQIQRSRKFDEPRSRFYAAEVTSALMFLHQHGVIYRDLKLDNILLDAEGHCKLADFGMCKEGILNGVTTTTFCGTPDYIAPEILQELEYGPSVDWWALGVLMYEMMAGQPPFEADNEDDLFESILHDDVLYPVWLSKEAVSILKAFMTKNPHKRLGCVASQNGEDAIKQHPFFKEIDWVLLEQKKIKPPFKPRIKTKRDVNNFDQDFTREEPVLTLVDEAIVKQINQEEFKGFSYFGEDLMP
Experiment: Antagonist activity at protein kinase C epsilon
property name: IC50 (µM)
Note: unit µM is implicit; provide only the numeric part.

Looking up CCCCCCCCCCCCCCCC[C@@]1(OC)C=C[C@@H](CC(=O)OC)OO1 [CHONDRILLIN] , I see its IC50 listed as 72.7

---

Measured EC50 by item
Tested on: KB
Assay: Cytotoxicity against human KB cells
Type: functional, cell-based
Conditions: Homo sapiens, KB; read-out: ED50 (the source's name)
Number only, in µg/mL; omit the unit.

C=CC(C[C@@H](C)[C@H]1CC[C@H]2[C@@H]3CC=C4C[C@@H](O)CC[C@]4(C)[C@H]3CC[C@]12C)(OO)C(C)C (stereo partly drawn) ... 1.8
C=C(C)C(CC[C@@H](C)[C@H]1CC[C@H]2[C@@H]3CC=C4C[C@@H](O)CC[C@]4(C)[C@H]3CC[C@]12C)OO (stereo partly drawn) ... 0.33

Moving on to the next compound.
Log: KB, compound C[C@H](C/C=C/C(C)(C)OO)[C@H]1CC[C@H]2[C@@H]3CC=C4C[C@@H](O)CC[C@]4(C)[C@H]3CC[C@]12C , EC50 = 1.41

---

Catalogue of IC80 readings, one per entry.
Assay: Cytotoxicity against mouse Ehrlich Ascites carcinoma by trypan blue exclusion assay
Assay type: functional
Report as a plain number; the unit µM is understood.

C[C@@H]1CCC2[C@@H](C)[C@H](O[C@@H]3O[C@H]4O[C@@]5(C)CC[C@@H]6[C@@H](C)CCC([C@@H]3C)[C@]46OO5)O[C@@H]3O[C@]4(C)CC[C@@H]1[C@@]23OO4 (stereo not given in full) ... 2.4

Summary for this compound, CC(=O)[C@@H]1CC[C@@H](C)[C@@H]2CC[C@]3(C)OO[C@@]12[C@H](OC=O)O3 : IC80 is 156

---

Molecular target: Aldo-keto reductase family 1 member B1 (Rattus norvegicus)
property name: pIC50
pIC50 here: minus log base 10 of the concentration, concentration in moles per litre.

For record CC(C)[C@@H](C)/C=C/[C@@H](C)[C@H]1CC[C@@H]2[C@]1(C)CC[C@H]1[C@]23C=C[C@]2(C[C@@H](O)CC[C@]12C)OO3 [ERGOSTEROL PEROXIDE] the listed pIC50 is 4.44

---

System: A549
Assay: Cytotoxicity against human A549 cells by soft agar assay
Type: functional
property name: GI50

# count of solved cases: 4
C=C1CCC[C@@H]2[C@@H](CC[C@@]3(C)CC[C@H]([C@H](C)C(=O)O)OO3)[C@H](C)CC[C@@]12C ... 0.94 µM
CC1=C(CC/C(C)=C/CC[C@@]2(C)CC[C@@H]([C@H](C)C(=O)O)OO2)C(C)(C)CCC1 [EPIMUQUBILIN A] ... > 5 µM
C=C1CCCC(C)(C)C1(O)CC/C(C)=C/CC[C@]1(C)CC[C@@H]([C@@H](C)C(=O)OC)OO1 (stereo not given in full) ... > 5 µM
C=C1CCCC(C)(C)C1CC[C@]1(C)CC[C@@H]([C@@H](C)C(=O)O)OO1 (stereo not given in full) [EPINUAPAPUIN B] ... > 5 µM

Next molecule, GI50 to be filled in.
C=C1CCCC(C)(C)C1(O)CC/C(C)=C/CC[C@]1(C)CC[C@H]([C@@H](C)C(=O)OC)OO1 (stereo not given in full) [EPIMUQUBILIN B] yielded GI50 of > 5 µM

---

Target: Protein kinase C zeta type (Homo sapiens, UniProt Q05513)
Sequence (Q05513 whole entry): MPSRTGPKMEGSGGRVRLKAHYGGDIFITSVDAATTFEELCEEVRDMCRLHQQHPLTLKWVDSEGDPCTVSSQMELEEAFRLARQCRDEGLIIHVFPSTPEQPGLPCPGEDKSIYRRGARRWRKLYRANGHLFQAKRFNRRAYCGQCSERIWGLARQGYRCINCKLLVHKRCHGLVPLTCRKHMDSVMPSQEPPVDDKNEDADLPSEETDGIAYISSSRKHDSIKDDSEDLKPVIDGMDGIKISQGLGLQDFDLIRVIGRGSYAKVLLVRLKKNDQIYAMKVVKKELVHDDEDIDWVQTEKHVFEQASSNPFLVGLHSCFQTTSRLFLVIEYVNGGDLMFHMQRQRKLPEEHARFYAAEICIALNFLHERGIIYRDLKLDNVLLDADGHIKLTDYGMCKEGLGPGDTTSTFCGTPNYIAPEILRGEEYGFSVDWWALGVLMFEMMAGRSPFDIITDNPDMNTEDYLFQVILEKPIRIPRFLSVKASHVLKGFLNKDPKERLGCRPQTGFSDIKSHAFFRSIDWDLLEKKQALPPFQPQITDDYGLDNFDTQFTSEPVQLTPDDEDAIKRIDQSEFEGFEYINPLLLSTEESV
Assay: Antagonist activity at protein kinase C zeta
property name: IC50 (µM)
I only need the number, in µM, no unit after it.

IC50 recorded for this molecule, CCCCCCCCCCCCCCCC[C@@]1(OC)C=C[C@@H](CC(=O)OC)OO1 , is 104

---

Test system: BT-549
Assay: Cytotoxicity against human BT549 cells by soft agar assay
Type: functional
Catalogue of GI50 readings, one per entry.
Field format: number, assumed nM, no unit text.

C=C1CCC[C@H]2[C@](C)(CC[C@]3(C)CC[C@H]([C@@H](C)C(=O)O)OO3)[C@@H](C)CC[C@]12C [SIGMOSCEPTRELLIN A] ... 960

Okay, now this compound:
In plain terms, C=C1CCC[C@@H]2[C@@H](CC[C@@]3(C)CC[C@H]([C@H](C)C(=O)O)OO3)[C@H](C)CC[C@@]12C [SIGMOSCEPTRELLIN B] has a documented GI50 of 960

---

Experiment: Cytotoxicity against human CFUGM
Assay type: functional
Conditions: CFU-GM
property name: IC50 (µM)
Use µM as the unit, but write only the number.

Please review the following examples before continuing.
C[C@H]1[C@H](O[C@H]2O[C@@H]3O[C@]4(C)CC[C@H]5[C@H](C)CC[C@@H]([C@H]2C)[C@@]35OO4)O[C@@H]2O[C@]3(C)CC[C@H]4[C@H](C)CC[C@@H]1[C@@]24OO3 ... 52.5
C[C@H]1[C@H](O[C@@H]2O[C@@H]3O[C@]4(C)CC[C@H]5[C@H](C)CC[C@@H]([C@H]2C)[C@@]35OO4)O[C@@H]2O[C@]3(C)CC[C@H]4[C@H](C)CC[C@@H]1[C@@]24OO3 ... 3.6
C=C1C(=O)O[C@@H]2O[C@@]3(C)CC[C@H]4[C@H](C)CC[C@@H]1[C@@]24OO3 ... 1.7

Here's the next entry for you.
Value of IC50 reported for the compound C[C@@H]1CC[C@H]2[C@@H](C)C(=O)O[C@@H]3O[C@@]4(C)CC[C@@H]1[C@]32OO4 is 385

---

System: HT-29
Assay: Cytotoxicity against human HT29 cells
Assay type: functional, cell-based
Settings: Homo sapiens, HT-29; read-out: ED50 (the source's name)
property name: EC50 (µg/mL)
Lab book: enter the figure in µg/mL, no units written.

C[C@H](C/C=C/C(C)(C)OO)[C@H]1CC[C@H]2[C@@H]3C[C@@H](O)C4=CC(=O)CC[C@]4(C)[C@H]3CC[C@]12C ... 0.63
C=CC(CC[C@@H](C)[C@H]1CC[C@H]2[C@@H]3C[C@@H](O)C4=CC(=O)CC[C@]4(C)[C@H]3CC[C@]12C)(OO)C(C)C (stereo partly drawn) ... 0.43

# next molecule below
In plain terms, C[C@H](C/C=C/C(C)(C)OO)[C@H]1CC[C@H]2[C@@H]3CC(=O)C4=CC(=O)CC[C@]4(C)[C@H]3CC[C@]12C has a documented EC50 of 1.48
